Readings of melting point for the listed compounds

Past entries and their recorded results:
Compound: CC1(C)CC(=O)C2=C(C1)NC(c1ccc(Br)cc1)=CC2c1ccc(S(C)(=O)=O)cc1 (stereo not shown)
melting point: 226 to 230 °C

Compound: Cc1ccc(C2=CC(c3ccc(S(C)(=O)=O)cc3)C3=C(CC(C)(C)CC3=O)N2)cc1 (stereo not shown)
melting point: 223 to 225 °C

Compound: CC1(C)CC(=O)C2=C(C1)NC(c1ccc(S(C)(=O)=O)cc1)=CC2c1ccc(Cl)cc1 (stereo not shown)
melting point: 232 to 236 °C

Could you now consider this next compound?
Reported melting point for CC1(C)CC(=O)C2=C(C1)NC(c1ccc([N+](=O)[O-])cc1)=CC2c1ccc(S(C)(=O)=O)cc1 (stereo not shown) : what is it? 226 to 230 °C

====

# Experimental system: COX-2 (Ovis aries, UniProt P79208)
# Sequence (P79208 17-603): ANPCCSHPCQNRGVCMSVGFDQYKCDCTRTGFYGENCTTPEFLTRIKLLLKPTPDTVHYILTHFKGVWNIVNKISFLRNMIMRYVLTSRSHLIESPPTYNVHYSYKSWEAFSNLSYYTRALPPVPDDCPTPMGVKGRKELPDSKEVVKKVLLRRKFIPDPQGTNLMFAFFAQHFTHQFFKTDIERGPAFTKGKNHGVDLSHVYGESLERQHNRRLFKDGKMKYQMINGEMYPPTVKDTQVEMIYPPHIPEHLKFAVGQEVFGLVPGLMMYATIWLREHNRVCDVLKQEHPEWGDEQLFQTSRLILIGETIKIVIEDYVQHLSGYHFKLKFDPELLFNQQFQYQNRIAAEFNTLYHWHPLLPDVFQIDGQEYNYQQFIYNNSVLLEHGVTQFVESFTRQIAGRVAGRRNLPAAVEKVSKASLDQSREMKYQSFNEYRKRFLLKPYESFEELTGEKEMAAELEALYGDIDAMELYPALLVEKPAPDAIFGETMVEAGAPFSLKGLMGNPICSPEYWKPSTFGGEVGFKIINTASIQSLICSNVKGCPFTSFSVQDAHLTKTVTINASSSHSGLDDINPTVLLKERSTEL
Readings of pIC50 for the listed compounds
When answering, recall that pIC50 equals minus log10 of the concentration in mol/L, and write that number alone.

Past entries and their recorded results:
Compound: CC1(C)CC(=O)C2=C(C1)NC(c1ccc(Cl)cc1)=CC2c1ccc(S(C)(=O)=O)cc1 (stereo not shown)
pIC50: 5.16
//
Compound: CC1(C)CC(=O)C2=C(C1)NC(c1ccc(S(C)(=O)=O)cc1)=CC2c1ccccc1 (stereo not shown)
pIC50: 6.10
//
Compound: CC1(C)CC(=O)C2=C(C1)NC(c1ccc(F)cc1)=CC2c1ccc(S(C)(=O)=O)cc1 (stereo not shown)
pIC50: 6.00
//
Compound: CC1(C)CC(=O)C2=C(C1)NC(c1ccc(S(C)(=O)=O)cc1)=CC2c1ccc(Cl)cc1 (stereo not shown)
pIC50: 5.31
//
Compound: CC1(C)CC(=O)C2=C(C1)NC(c1ccccc1)=CC2c1ccc(S(C)(=O)=O)cc1 (stereo not shown)
pIC50: 5.94

Reported pIC50 for CC1(C)CC(=O)C2=C(C1)NC(c1ccc(S(C)(=O)=O)cc1)=CC2c1ccc([N+](=O)[O-])cc1 (stereo not shown) : what is it? 4.78

Reported pIC50 for Cc1ccc(C2C=C(c3ccc(S(C)(=O)=O)cc3)NC3=C2C(=O)CC(C)(C)C3)cc1 (stereo not shown) : what is it? 6.35

====

# Experimental system: COX-2 (Ovis aries)
# Construct: purchased Cayman chemical, MI, USA
# Method notes: biochemical
# Recorded conditions: in-vitro COX-2 selectivity index
Readings of COX-2 S.I. (COX-1 IC50/ COX-2 IC50) for the listed molecules
Answer using only a numeral; do not append any unit.

Past entries and their recorded results:
Molecule: CC1(C)CC(=O)C2=C(C1)NC(c1ccc(S(C)(=O)=O)cc1)=CC2c1ccc(Cl)cc1 (stereo not shown) [Compound 9e]
Val: 3.8
--
Molecule: CC1(C)CC(=O)C2=C(C1)NC(c1ccc(Br)cc1)=CC2c1ccc(S(C)(=O)=O)cc1 (stereo not shown) [Compound 9m]
Val: 1.3
--
Molecule: CC1(C)CC(=O)C2=C(C1)NC(c1ccc(S(C)(=O)=O)cc1)=CC2c1ccc(Br)cc1 (stereo not shown) [Compound 9f]
Val: 2.1

Could you now consider this next molecule?
Reported COX-2 S.I. (COX-1 IC50/ COX-2 IC50) for CC1(C)CC(=O)C2=C(C1)NC(c1ccc(S(C)(=O)=O)cc1)=CC2c1ccccc1 (stereo not shown) [Compound 9a] : what is it? 3.3

====

# Experimental system: COX-2 (Ovis aries, UniProt P79208)
# Construct: purchased Cayman chemical, MI, USA
# Sequence (P79208 17-603): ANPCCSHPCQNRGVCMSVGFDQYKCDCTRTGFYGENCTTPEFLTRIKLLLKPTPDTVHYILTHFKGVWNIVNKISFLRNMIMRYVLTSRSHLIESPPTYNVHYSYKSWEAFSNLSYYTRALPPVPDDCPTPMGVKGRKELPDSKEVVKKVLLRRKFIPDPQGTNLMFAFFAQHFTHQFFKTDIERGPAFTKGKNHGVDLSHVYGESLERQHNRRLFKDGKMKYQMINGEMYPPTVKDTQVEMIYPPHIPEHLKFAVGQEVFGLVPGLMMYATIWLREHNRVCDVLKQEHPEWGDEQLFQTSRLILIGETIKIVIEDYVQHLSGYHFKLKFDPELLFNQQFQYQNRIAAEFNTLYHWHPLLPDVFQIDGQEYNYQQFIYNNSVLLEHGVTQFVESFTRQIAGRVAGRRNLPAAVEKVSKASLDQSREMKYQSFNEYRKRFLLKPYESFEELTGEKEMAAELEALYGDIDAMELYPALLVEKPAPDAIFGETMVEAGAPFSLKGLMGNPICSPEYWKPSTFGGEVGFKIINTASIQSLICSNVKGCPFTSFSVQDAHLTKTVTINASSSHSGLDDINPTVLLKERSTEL
# Method notes: biochemical
# Recorded conditions: in-vitro COX-2 selectivity index
# Procedure: In-vitro cyclooxygenase (COX) inhibition assays The assay was performed using an enzyme chemiluminescent kit (Cayman chemical, MI, USA) according to our previously reported method ([10]).
COX-2 S.I. (COX-1 IC50/ COX-2 IC50) strictly under 2 means Yes; at 2 or over means No.

Example cases with answers are listed next.
Compound: CC1(C)CC(=O)C2=C(C1)NC(c1ccc(S(C)(=O)=O)cc1)=CC2c1ccc(F)cc1 (stereo not drawn) [Compound 9d]
Class label: No

Compound: CC1(C)CC(=O)C2=C(C1)NC(c1ccc(S(C)(=O)=O)cc1)=CC2c1ccc([N+](=O)[O-])cc1 (stereo not drawn) [Compound 9g]
Class label: Yes

Compound: CC1(C)CC(=O)C2=C(C1)NC(c1ccc(Cl)cc1)=CC2c1ccc(S(C)(=O)=O)cc1 (stereo not drawn) [Compound 9l]
Class label: No

Next compound, please.
Does CC1(C)CC(=O)C2=C(C1)NC(c1ccc([N+](=O)[O-])cc1)=CC2c1ccc(S(C)(=O)=O)cc1 (stereo not drawn) [Compound 9n] have COX-2 S.I. (COX-1 IC50/ COX-2 IC50) strictly under 2? Yes

====

Readout type: melting point

Past entries and their recorded results:
Molecule: CC1(C)CC(=O)C2=C(C1)NC(c1ccc(S(C)(=O)=O)cc1)=CC2c1ccc(Br)cc1 (stereo not shown)
melting point: 237 to 240 °C
//
Molecule: CC1(C)CC(=O)C2=C(C1)NC(c1ccc(S(C)(=O)=O)cc1)=CC2c1ccc(F)cc1 (stereo not shown)
melting point: 130 to 133 °C
//
Molecule: COc1ccc(C2=CC(c3ccc(S(C)(=O)=O)cc3)C3=C(CC(C)(C)CC3=O)N2)cc1 (stereo not shown)
melting point: 226 to 230 °C

Could you now consider this next molecule?
Reported melting point for CC1(C)CC(=O)C2=C(C1)NC(c1ccc(Cl)cc1)=CC2c1ccc(S(C)(=O)=O)cc1 (stereo not shown) : what is it? 226 to 230 °C

====

Readings of melting point for the listed compounds

Past entries and their recorded results:
Compound: CC1(C)CC(=O)C2=C(C1)NC(c1ccc(F)cc1)=CC2c1ccc(S(C)(=O)=O)cc1 (stereo not drawn) [Compound 9k]
melting point: 226 to 230 °C

Compound: COc1ccc(C2C=C(c3ccc(S(C)(=O)=O)cc3)NC3=C2C(=O)CC(C)(C)C3)cc1 (stereo not drawn) [Compound 9c]
melting point: 250 to 253 °C

Could you now consider this next compound?
Reported melting point for CC1(C)CC(=O)C2=C(C1)NC(c1ccccc1)=CC2c1ccc(S(C)(=O)=O)cc1 (stereo not drawn) [Compound 9h] : what is it? 205 to 208 °C

====

Readings of COX-2 S.I. (COX-1 IC50/ COX-2 IC50) for the listed molecules
# Experimental system: COX-2 (Ovis aries)
# Construct: purchased Cayman chemical, MI, USA
# Method notes: biochemical
# Recorded conditions: in-vitro COX-2 selectivity index
Answer using only a numeral; do not append any unit.

Past entries and their recorded results:
Molecule: Cc1ccc(C2=CC(c3ccc(S(C)(=O)=O)cc3)C3=C(CC(C)(C)CC3=O)N2)cc1 (centres unmarked)
COX-2 S.I. (COX-1 IC50/ COX-2 IC50): 2.2
//
Molecule: COc1ccc(C2=CC(c3ccc(S(C)(=O)=O)cc3)C3=C(CC(C)(C)CC3=O)N2)cc1 (centres unmarked)
COX-2 S.I. (COX-1 IC50/ COX-2 IC50): 62.3
//
Molecule: CC1(C)CC(=O)C2=C(C1)NC(c1ccc(F)cc1)=CC2c1ccc(S(C)(=O)=O)cc1 (centres unmarked)
COX-2 S.I. (COX-1 IC50/ COX-2 IC50): 14.2

Reported COX-2 S.I. (COX-1 IC50/ COX-2 IC50) for Cc1ccc(C2C=C(c3ccc(S(C)(=O)=O)cc3)NC3=C2C(=O)CC(C)(C)C3)cc1 (centres unmarked) : what is it? 5.6

Reported COX-2 S.I. (COX-1 IC50/ COX-2 IC50) for CC1(C)CC(=O)C2=C(C1)NC(c1ccccc1)=CC2c1ccc(S(C)(=O)=O)cc1 (centres unmarked) : what is it? 3.1

Numbers sourced from paper PMC3977054.
